Sourced from ChEMBL document CHEMBL1139079

Reported CC50 values follow for various compounds
Assay: Cytotoxicity against MT2 cells
Type: cell-based
Conditions: human

# example entries with known answers
>>> value_observed("CC1(C)OC(=O)C2(C(=O)O1)[C@@H](c1ccco1)CC(=O)C[C@H]2c1c[nH]c2ccccc12")
"> 111 µM"
>>> value_observed("COc1ccc([C@H]2CC(=O)CCC23C(=O)OC(C)(C)OC3=O)cc1")
"> 111 µM"
>>> value_observed("CCOC(=O)C1=C(O)CCC2(C(=O)OC(C)(C)OC2=O)[C@H]1c1ccco1")
"> 111 µM"
>>> value_observed("COc1cccc([C@@H]2CC(=O)C[C@H](c3ccco3)C23C(=O)OC(C)(C)OC3=O)c1OC")
"> 111 µM"
>>> value_observed("COc1ccc([C@@H]2CC(=O)C[C@H](c3ccco3)C23C(=O)OC(C)(C)OC3=O)cc1OC")
"> 111 µM"

Sample CCOC(=O)C1=C(O)CCC2(C(=O)OC(C)(C)OC2=O)[C@H]1c1ccccc1OC ; CC50 observed: > 111 µM

Sample COc1ccc([C@@H]2CC(=O)C[C@H](c3ccccc3OC)C23C(=O)OC(C)(C)OC3=O)cc1O ; CC50 observed: > 111 µM

Sample CC1(C)OC(=O)C2(C(=O)O1)[C@@H](c1ccco1)CC(=O)C[C@H]2c1ccc(Br)cc1 ; CC50 observed: > 111 µM

Sample COc1ccc([C@@H]2CC(=O)C[C@H](c3ccco3)C23C(=O)OC(C)(C)OC3=O)cc1 ; CC50 observed: > 111 µM

Sample CC1(C)OC(=O)C2(C(=O)O1)[C@@H](c1ccco1)CC(=O)C[C@H]2c1ccccc1Cl ; CC50 observed: > 111 µM

Sample COc1ccc([C@@H]2CC(=O)C[C@H](c3ccco3)C23C(=O)OC(C)(C)OC3=O)cc1O ; CC50 observed: > 111 µM

Sample CC1(C)OC(=O)C2(C(=O)O1)[C@@H](c1ccco1)CC(=O)C[C@H]2c1ccc(F)cc1 ; CC50 observed: > 111 µM

Sample CC1(C)OC(=O)C2(C(=O)O1)[C@@H](c1ccco1)CC(=O)C[C@H]2c1ccccc1 ; CC50 observed: > 111 µM

Sample COc1ccc([C@@H]2CC(=O)C[C@H](c3ccco3)C23C(=O)OC(C)(C)OC3=O)c(C)c1 ; CC50 observed: > 111 µM

Sample CC1(C)OC(=O)C2(C(=O)O1)[C@@H](c1ccco1)CC(=O)C[C@H]2c1ccco1 ; CC50 observed: > 111 µM

====

Target: Human immunodeficiency virus type 1 integrase (Human immunodeficiency virus 1, UniProt Q7ZJM1)
Sequence (Q7ZJM1 whole entry): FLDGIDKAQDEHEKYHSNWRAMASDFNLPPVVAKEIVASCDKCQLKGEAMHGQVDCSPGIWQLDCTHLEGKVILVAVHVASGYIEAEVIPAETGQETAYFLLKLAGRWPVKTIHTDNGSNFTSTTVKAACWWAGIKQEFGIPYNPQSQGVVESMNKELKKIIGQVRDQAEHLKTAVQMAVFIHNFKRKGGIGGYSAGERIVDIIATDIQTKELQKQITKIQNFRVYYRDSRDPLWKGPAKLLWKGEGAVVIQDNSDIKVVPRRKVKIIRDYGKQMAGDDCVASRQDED
Assay: Inhibition of recombinant HIV1 integrase 3'-end processing activity
Reported log10(IC50) values follow for various compounds
Annotation: log10 of IC50, µM basis.

# example entries with known answers
>>> value_observed("CC1(C)OC(=O)C2(C(=O)O1)[C@@H](c1ccco1)CC(=O)C[C@H]2c1c[nH]c2ccccc12")
1.05
>>> value_observed("COc1ccc([C@@H]2CC(=O)C[C@H](c3ccco3)C23C(=O)OC(C)(C)OC3=O)cc1")
2.11
>>> value_observed("CC1(C)OC(=O)C2(C(=O)O1)[C@@H](c1ccco1)CC(=O)C[C@H]2c1ccco1")
1.52
>>> value_observed("CCOC(=O)C1=C(O)CCC2(C(=O)OC(C)(C)OC2=O)[C@H]1c1ccco1")
1.83

Sample CC1(C)OC(=O)C2(C(=O)O1)[C@@H](c1ccco1)CC(=O)C[C@H]2c1ccccc1 ; log10(IC50) observed: 2.15
